From: ChEMBL document CHEMBL1124310

# TARGET_ENTITY: UniProt P09917
# Sequence (whole entry): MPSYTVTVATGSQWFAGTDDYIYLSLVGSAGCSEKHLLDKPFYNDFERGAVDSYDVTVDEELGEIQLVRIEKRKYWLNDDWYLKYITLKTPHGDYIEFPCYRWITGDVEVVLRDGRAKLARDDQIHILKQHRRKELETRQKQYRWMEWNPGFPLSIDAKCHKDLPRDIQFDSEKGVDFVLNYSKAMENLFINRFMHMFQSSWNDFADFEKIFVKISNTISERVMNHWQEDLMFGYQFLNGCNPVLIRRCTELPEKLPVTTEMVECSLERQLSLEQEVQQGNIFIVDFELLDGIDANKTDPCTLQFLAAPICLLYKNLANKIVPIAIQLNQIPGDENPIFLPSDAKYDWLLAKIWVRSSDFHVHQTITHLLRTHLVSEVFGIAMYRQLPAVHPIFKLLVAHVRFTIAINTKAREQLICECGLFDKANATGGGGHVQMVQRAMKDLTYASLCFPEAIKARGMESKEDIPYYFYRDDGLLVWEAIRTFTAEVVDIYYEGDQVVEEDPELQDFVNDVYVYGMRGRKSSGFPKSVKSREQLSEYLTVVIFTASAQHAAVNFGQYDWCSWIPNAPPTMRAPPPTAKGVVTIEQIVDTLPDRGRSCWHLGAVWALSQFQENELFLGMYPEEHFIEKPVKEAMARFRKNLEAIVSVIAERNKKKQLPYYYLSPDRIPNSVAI
# EXPERIMENTAL_PROTOCOL: Inhibitory activity against 5-lipoxygenase at 10 uM concentration
PROPERTY_MEASURED: inhibition (%)

1: CC(C)(C)c1cc(/C=C/c2ccc(F)cc2)cc(C(C)(C)C)c1O
2: CC(C)(C)c1cc(/C=C2\CCOC2=O)cc(C(C)(C)C)c1O
# argmax over inhibition for candidates 1 and 2 Pick one and reply with its label.
2
(2: 67%, 1: 46%)
